Tested on: MV4-11 cells
Test: Inhibition of MV4-11 cell proliferation (CellTiterGlo)
Assay type: cell-based
Conditions: Homo sapiens, 72 hours growth, uncertainty ±20%
Experimental: To assess the cellular potency of compounds of the present invention, FLT3 specific growth inhibition was measured in the leukemic cell line MV4-11 (ATCC Number: CRL-9591). […] To measure proliferation inhibition by compounds of the present invention, the luciferase based CellTiterGlo reagent (Promega), which quantifies total cell number based on total cellular ATP concentration, was used. […]
Structures can show the parent of a compound that is named as a salt.
Lab note: anything with IC50 below 0.1 µM is marked y; values at 0.1 µM or higher are marked n.

Cn1ccnc1CN1CCC(c2ccc(NC(=O)c3nc(C#N)c[nH]3)c(C3=CCCC3)c2)CC1 [Example 23, trifluoroacetic acid salt] = n

Shifting focus to the compound that follows.
Say whether its IC50 is strictly beneath 0.1 µM. Entry: CN1CCN(c2ccc(NC(=O)c3ccc(C#N)o3)c(C3=CCCCC3)c2)CC1 [Example 11]
n
